- assay-text: AUClast in female ICR mouse at 5 mg/kg, ip by LC-MS/MS analysis
- Format: ADME, organism-based
- stated-conditions: in vivo
reported-endpoint: AUC(0-t) (ng·h/mL)
Note: unit ng·h/mL is implicit; provide only the numeric part.

Query CCN(C(=O)c1cc(F)ccc1Nc1cncnc1N1CCN(CC2CN(c3ccc(S(=O)(=O)C4CN(C(=O)/C=C/CN(C)C)C4)cc3)C2)C(C)C1)C(C)C (stereo unspecified) yields AUC(0-t) of 1150

----------
Give IC50 for every item shown.
- System: REH
- assay-text: Antiproliferative activity against human menin-insensitive REH cells assessed as inhibition of cell growth incubated for 7 days by MTS assay
- Type: functional, cell-based
- stated-conditions: 168 h
Number in µM, nothing else.

Entry "CCN(C(=O)c1cc(F)ccc1Nc1cncnc1N1CCN(CC2CN(c3ccc(S(=O)(=O)C4CN(C(=O)/C=C/CN5CCCCC5)C4)cc3)C2)CC1)C(C)C" , IC50 reported as 7.88

Recorded IC50 (compound "C=CC(=O)Nc1ccc(N2CC(CN3CCN(c4ncncc4Nc4ccc(F)cc4C(=O)N(C(C)C)C(C)C)CC3)C2)cc1" ): 4.28

# IC50 (compound: "CCN(C(=O)c1cc(F)ccc1Nc1cncnc1N1CCN(CC2CN(c3ccc(S(=O)(=O)C4CN(C(=O)/C=C/CN5CCCC5)C4)cc3)C2)CC1)C(C)C" ) is 6.98
